Hey, just so you know, these numbers are from PubChem BioAssay (NCI).

System: UACC-62 melanoma
Experiment: NCI-60 one-dose screen, 48 h (100 = growth as untreated, 0 = no growth, -100 = all killed)
Details: 10 µM unless noted
Method: Growth inhibition of the UACC-62 human tumor cell line is measured as a screen for anti-cancer activity. Cells are grown in 96 well plates and exposed to the test compound for 48 hours. Compounds are tested at a single concentration, which is 10^-5 M for most compounds. The reported endpoint is percent growth (GI% or GIPRCNT), where numbers from 0 - 100% represent growth inhibition, and numbers from -100% - 0 represent cell death. For example, a value of 40 represents 60% growth inhibition. […]
About 83,000 compounds went through this panel and 20% of them were active in at least one assay; those are over-represented in the sample as a whole.
// reported growth per item
// return numeric value only (unit: %, not printed)

Reference set (3 entries):
- compound: "COCCOc1ccc(-c2csc(NC(=O)CN3CCN(CCO)CC3)n2)cc1NS(=O)(=O)c1cccc2c(N(C)C)cccc12"
  system name: "UACC-62 melanoma"
  unit text: "%"
  growth: 80.5
- compound: "O=C1CSC(=O)N1Cc1cc2ccccc2nc1Cl"
  system name: "UACC-62 melanoma"
  unit text: "%"
  growth: 93.9
- compound: "COc1ccc2c(C3=C(c4cn(C)c5ccccc45)C(=O)NC3=O)coc2c1"
  system name: "UACC-62 melanoma"
  unit text: "%"
  growth: 29.5

Measured growth of O=C1[C@@H]2Cc3c([nH]c4ccccc34)[C@H](c3c(Cl)cccc3Cl)N2C(=O)CN1C1CCN(Cc2c(F)cccc2F)CC1 : 76.8

Notebook: O=C(COc1ccc(C2SCC(=O)N2c2ccccc2)cc1)c1ccccc1 (configuration not stated) , growth read as 68.6

Lab note: measured growth of CC1(C)CC[C@]2(C(=O)O)CC[C@]3(C)C(=CCC4[C@@]5(C)C[C@@H](O)[C@@H]6OC(c7cccc([N+](=O)[O-])c7)OC[C@@]6(C)C5CC[C@]43C)C2C1 (some centres not stated) was 69.2

Please fill in: growth reported for O=C(CCCCCCN1CC(=O)N2[C@@H](c3cc(F)cc(F)c3)c3[nH]c4ccccc4c3C[C@H]2C1=O)NO = 21.4

// growth value for CCCCCCCCNC(=O)c1ccc(Cn2c(CCCC)nc3c(N)nc4ccccc4c32)cc1 : 23.4
